Each entry below lists one item and its recorded pIC50 value.
- Target desc: lethal factor (LF) (Bacillus anthracis, UniProt P15917)
- Sequence (P15917 34-809 limits assumed): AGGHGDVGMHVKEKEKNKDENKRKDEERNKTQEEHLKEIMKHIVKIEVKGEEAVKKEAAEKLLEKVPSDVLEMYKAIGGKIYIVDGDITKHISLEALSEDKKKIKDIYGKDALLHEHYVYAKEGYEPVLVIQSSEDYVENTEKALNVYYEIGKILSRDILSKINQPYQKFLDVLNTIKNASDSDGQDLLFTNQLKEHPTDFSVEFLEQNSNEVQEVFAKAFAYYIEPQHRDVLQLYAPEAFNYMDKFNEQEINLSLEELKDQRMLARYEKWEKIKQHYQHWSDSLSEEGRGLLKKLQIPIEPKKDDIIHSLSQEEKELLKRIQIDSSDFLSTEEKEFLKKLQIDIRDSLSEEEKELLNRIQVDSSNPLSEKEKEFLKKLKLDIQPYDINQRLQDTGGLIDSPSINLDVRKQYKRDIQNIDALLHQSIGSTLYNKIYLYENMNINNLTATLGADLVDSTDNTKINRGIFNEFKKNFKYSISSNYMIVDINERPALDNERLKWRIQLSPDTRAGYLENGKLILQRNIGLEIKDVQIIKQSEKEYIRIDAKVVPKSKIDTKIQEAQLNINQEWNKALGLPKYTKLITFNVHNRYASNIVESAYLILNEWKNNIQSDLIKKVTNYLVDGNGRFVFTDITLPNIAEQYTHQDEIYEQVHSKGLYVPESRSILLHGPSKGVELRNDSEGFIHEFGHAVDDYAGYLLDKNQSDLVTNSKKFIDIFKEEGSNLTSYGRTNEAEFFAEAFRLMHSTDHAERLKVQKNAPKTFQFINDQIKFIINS
- Run description: biochemical
- Assay type: biochemical
- Condition context: pH 7.4; read-out: LF IC50
The read-out pIC50 is expressed as -log10 of concentration in moles per litre.

# Compound, Target desc, pIC50
records = [
    ("CCOc1ccc(-c2nn(-c3ccccc3)cc2/C=C2\\SC(=S)N(CC(=O)O)C2=O)cc1F [Compound 46]", "lethal factor (LF) (Bacillus anthracis, UniProt P15917)", 5.46),
]

Q: Dear colleague, I am looking for the recorded pIC50 of the following compound: CC1Cc2cc(-c3nn(-c4ccccc4)cc3/C=C3\SC(=S)N(CCS(=O)(=O)O)C3=O)ccc2O1 (centres unmarked) [Compound 39]
Result: 5.64

Q: Dear colleague, I am looking for the recorded pIC50 of the following compound: O=C(O)CN1C(=O)/C(=C/c2cc(-c3ccco3)on2)SC1=S [Compound 20]
Result: 4.77

Q: Dear colleague, I am looking for the recorded pIC50 of the following compound: COc1ccc(-c2nn(-c3ccccc3)cc2/C=C2\SC(=S)N(CC(=O)O)C2=O)cc1C [Compound 36]
Result: 5.45

Q: Dear colleague, I am looking for the recorded pIC50 of the following compound: O=C(O)CN1C(=O)/C(=C/c2c[nH]c3ccccc23)SC1=S [Compound 60]
Result: 4.41

Q: Dear colleague, I am looking for the recorded pIC50 of the following compound: O=C(O)CN1C(=O)/C(=C/c2csc3ccc(Br)cc23)SC1=S [Compound 58]
Result: 4.98

Q: Dear colleague, I am looking for the recorded pIC50 of the following compound: O=C(O)C(c1ccccc1)N1C(=O)/C(=C/c2ccc(-c3cccc(Cl)c3)o2)SC1=S (centres unmarked) [Compound 8]
Result: 5.36

Q: Dear colleague, I am looking for the recorded pIC50 of the following compound: O=C(O)CN1C(=O)/C(=C/c2cn(-c3ccccc3)nc2-c2cccs2)SC1=S [Compound 29]
Result: 5.51

Q: Dear colleague, I am looking for the recorded pIC50 of the following compound: O=C1/C(=C/c2ccc(-c3ccc(Cl)c(Cl)c3)o2)SC(=S)N1CCS(=O)(=O)O [Compound 11]
Result: 5.75
